Reported CC50 values are given for each entry in this list.
- testMethodNotes: Cytotoxicity against human MT2 cells by MTT assay
- Type: cell-based

Completed entries (count: 3):
# smilesStr, quantityKind, valueObserved
rows = [
    ("Cc1cn([C@H]2C[C@H](N=[N+]=[N-])[C@@H](CO)O2)c(=O)[nH]c1=O", "CC50", "> 200 µM"),
    ("C#C[C@]1(CO)O[C@@H](n2cc(C)c(=O)[nH]c2=O)[C@@H](F)[C@@H]1O", "CC50", "> 10 µM"),
    ("C#C[C@]1(CO)O[C@@H](n2ccc(=O)[nH]c2=O)[C@@H](F)[C@@H]1O", "CC50", "> 10 µM"),
]

Qu. Find the recorded CC50 belonging to "C#C[C@]1(CO)O[C@@H](n2ccc(N)nc2=O)[C@@H](F)[C@@H]1O" and report it.
Ans. > 10 µM

###

- Test system: Human immunodeficiency virus 1
- testMethodNotes: Antiviral activity against reverse transcriptase multidrug-resistant HIV1 infected in human TZM-bl cells assessed as inhibition of viral replication after 4 days by p24 based ELISA
- Assay type: functional, organism-based
- conditionLabel: Human immunodeficiency virus 1, TZM-bl, 96 h
quantityKind: pIC50
Quick note: pIC50 values are minus log10 of concentrations in mol/L.

Qu. What pIC50 value was documented for this compound, "C#C[C@]1(CO)O[C@@H](n2ccc(N)nc2=O)[C@@H](F)[C@@H]1O" ?
Ans. 8.84
